Assay: Metabolic stability in human liver microsomes assessed as parent compound remaining at 10 uM preincubated for 10 mins in water bath followed by NADPH addition and measured after 60 mins by LC-MS/MS analysis
Type: ADME, Microsome
Settings: read-out: Stability
endpoint.name: remaining at 1 h, 10 µM (%)
# output: bare number, implied unit %

IN: I am curious: what remaining at 1 h, 10 µM value has been reported for "CNC(=O)[C@H](C)Cn1cnc2ccc(-c3cnc(OC)c(NS(=O)(=O)c4ccc(F)cc4Cl)c3)cc2c1=O" ?
OUT: 44.6

###

Target: Phosphatidylinositol 4,5-bisphosphate 3-kinase catalytic subunit alpha isoform (Homo sapiens, UniProt P42336)
Sequence (P42336 whole entry, canonical isoform): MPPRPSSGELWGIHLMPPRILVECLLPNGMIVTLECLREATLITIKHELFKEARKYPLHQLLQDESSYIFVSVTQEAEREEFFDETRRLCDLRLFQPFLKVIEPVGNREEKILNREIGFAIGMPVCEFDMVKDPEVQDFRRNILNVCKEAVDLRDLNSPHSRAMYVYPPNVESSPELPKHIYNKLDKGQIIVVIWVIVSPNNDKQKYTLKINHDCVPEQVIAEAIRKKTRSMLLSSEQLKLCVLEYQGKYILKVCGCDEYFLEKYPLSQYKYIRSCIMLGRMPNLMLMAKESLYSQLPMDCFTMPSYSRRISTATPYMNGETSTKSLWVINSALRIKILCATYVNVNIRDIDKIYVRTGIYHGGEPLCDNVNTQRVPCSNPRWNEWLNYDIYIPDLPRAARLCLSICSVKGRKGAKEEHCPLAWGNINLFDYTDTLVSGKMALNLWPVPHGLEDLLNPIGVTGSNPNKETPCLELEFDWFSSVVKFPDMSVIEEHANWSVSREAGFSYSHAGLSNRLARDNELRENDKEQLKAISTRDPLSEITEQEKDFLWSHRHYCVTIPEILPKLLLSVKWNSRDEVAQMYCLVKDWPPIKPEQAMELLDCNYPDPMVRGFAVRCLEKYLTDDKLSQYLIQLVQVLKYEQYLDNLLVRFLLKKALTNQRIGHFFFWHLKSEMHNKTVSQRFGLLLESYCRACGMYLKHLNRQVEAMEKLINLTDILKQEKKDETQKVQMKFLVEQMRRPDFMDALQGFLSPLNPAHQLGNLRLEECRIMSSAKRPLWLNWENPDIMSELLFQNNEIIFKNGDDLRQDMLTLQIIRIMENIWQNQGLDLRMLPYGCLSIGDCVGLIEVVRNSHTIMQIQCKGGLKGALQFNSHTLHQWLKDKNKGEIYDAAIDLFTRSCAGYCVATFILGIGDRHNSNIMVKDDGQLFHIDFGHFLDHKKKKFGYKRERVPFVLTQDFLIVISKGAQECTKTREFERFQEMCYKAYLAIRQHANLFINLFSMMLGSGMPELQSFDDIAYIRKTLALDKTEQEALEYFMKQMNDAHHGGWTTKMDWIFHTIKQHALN
Test: Inhibition of PI3Kalpha (unknown origin) using PIP2:3PS peptide as substrate preincubated for 15 mins followed by ATP addition at Km concentration and further incubated for 150 mins by ADP-Glo assay
pIC50: −log10 of the molar value.
I would appreciate it if you labelled entries fulfilled when pIC50 is 8 or higher, otherwise not fulfilled.

IN: Exam item: decide whether the reported pIC50 for "CNC(=O)[C@H](C)Cn1cnc2ccc(-c3cnc(OC)c(NS(=O)(=O)c4cc(C(F)(F)F)cc(C(F)(F)F)c4)c3)cc2c1=O" is at least 8.
OUT: not fulfilled

IN: Would you say "COc1ncc(-c2ccc3ncn(C[C@@H](C)C(=O)N(C)C(C)C)c(=O)c3c2)cc1NS(=O)(=O)c1ccc(F)cc1Cl" shows pIC50 at minimum 8?
OUT: not fulfilled

IN: Is it the case that "CNC(=O)[C@H](C)Cn1cnc2ccc(-c3cnc(OC)c(NS(=O)(=O)c4ccc(F)cc4)c3)cc2c1=O" has pIC50 reaching or exceeding 8?
OUT: fulfilled

IN: Can "CNC(=O)[C@H](C)Cn1cnc2ccc(-c3cnc(OC)c(NS(=O)(=O)c4sc(C)nc4C)c3)cc2c1=O" be said to have pIC50 at or above 8?
OUT: fulfilled

IN: Hello, I need to know if "CNC(=O)[C@H](C)Cn1cnc2ccc(-c3cnc(N)c(NS(=O)(=O)c4ccc(F)cc4Cl)c3)cc2c1=O" has measured pIC50 not below 8. Thanks!
OUT: not fulfilled
